Measured Ratio/Fc-H values are reported for all entries that follow.
molecular target: T1, FcRn-p3 fusion protein (human, UniProt P55899 24-297; P61769 21-119); assay: phage ELISA pH6
T1 construct: baculovirus expressed; coated on ELISA wells; not shown: amino terminal part of bacteriophage p3 protein and CVDE protein
T1 sequence (P55899 24-297, chain 1 of 2): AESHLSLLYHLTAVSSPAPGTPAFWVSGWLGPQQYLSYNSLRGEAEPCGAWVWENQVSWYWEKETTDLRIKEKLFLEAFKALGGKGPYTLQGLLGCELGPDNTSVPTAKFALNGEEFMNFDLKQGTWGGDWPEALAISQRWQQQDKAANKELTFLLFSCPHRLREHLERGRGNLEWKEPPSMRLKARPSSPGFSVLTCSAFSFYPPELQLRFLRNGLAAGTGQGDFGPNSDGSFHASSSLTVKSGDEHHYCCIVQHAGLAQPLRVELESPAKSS
T1 sequence (P61769 21-119, chain 2 of 2): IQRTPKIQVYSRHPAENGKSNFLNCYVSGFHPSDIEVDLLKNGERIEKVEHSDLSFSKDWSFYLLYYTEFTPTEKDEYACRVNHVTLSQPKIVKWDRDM
Report only the number, with the unit fold understood.

Recorded Ratio/Fc-H, per entry:
# binder, numeric readout
rows = [
    ("C7A_49 (other, EU numbering) CPPCPAPELLGGPSVFLFPPKPKDTLMISRTPEVTCVVVDVSHEDPEVKFNWYVDGVEVHNAKTKPREEQYNSTYRVVSVLTVLHQDWLDGKEYKCKVSNKALPVPIEKTISKAKGQPREPQVYTLPPSRDELTKNQVSLTCLVKGFYPSDIAVEWESNGQPENNYKTAPPVLDSDGSFFLYSKLTVDKSRWQQGNVFSCSVMHEALHYHYTQKSLSLSPGK", 1.7),
    ("C7A_22 (other, EU numbering) CPPCPAPELLGGPSVFLFPPKPKDTLMISRTPEVTCVVVDVSHEDPEVKFNWYVDGVEVHNAKTKPREEQYNSTYRVVSVLTVLHQDWLDGKEYKCKVSNKALPAPIEETISKAKGQPREPQVYTLPPSRDELTKNQVSLTCLVKGFYPSDIVVEWESNGQPENNYKTTPPVLDSDGSFFLYSKLTVDKSRWQQGNVFSCSVMHEALHYHYTQKSLSLSPGK", 1.8),
    ("T8A_81 (other, EU numbering) CPPCPAPELLGGPSVFLFPPKPKDTLMISRTPEVTCVVADVSHEDPEVKFNWYVDGVEVHNAKTKPREEQYNSTYRVVSVLTVLHQDWLDGKEYKCKVSNKALPAPIEKTISKAKGQPREPQVYTLPPSRDELTKNQVSLTCLVKGFYPSDIAVEWVSNGQPENNYKTTPPVLDSDGSFFLYSKLTVDKSRWQQGNVFSCSVMHEALHYHYTQKSLSLSPGK", 2.5),
]

[ask] I have this binder here, T6A_75 (other, EU numbering) CPPCTAPELLGGPSVFLFPPKPKDTLMISRTPEVTCVVVDVSHEDPEVKFNWYVDGVEVHNAKTKPREEQYNSTYRVVSVLTVLHQDWLDGKEYKCKVSNKALPAPIEKTISKAKGQPREPQVYTLPPSRDELTKNRVSLTCLVKGFYPSDIAVEWESNGQPENNYKTTPPVLDSDGSFFLYSKLTVDKSRWQQGNVFSCTVMHEALHYHYTQKSLSLSPGK , and I need its recorded Ratio/Fc-H.
[reply] 5.7

[ask] I have this binder here, C4A_41 (other, EU numbering) CPPCPAPELLGGPSVFLFPPKPKDTLMISRTPEVTCVVVDVSHEDPEVKFNWYVDGVEVHNAKTKPREEQYNSTYRVVSVLTVLHQDWLDGKEYKCKVSNKALPVPIEKTISKAKGQPREPQVYTLPPSRDELTKNEVSLTCLVKGFYPSDIAVEWESNGQPENNYKTTPPVLDSDGSFFLYSKLTVDKSRWQQGNVFSCSVMHEALHYHYTQKSLSLSPGK , and I need its recorded Ratio/Fc-H.
[reply] 3.4

Taken from patent USRE46585.
